# assay_summary: adipocyte viability effects, profiling panel, cell-based, 3T3-L1 adipocytes, calcein-AM fluorescence, 48 h, basal (AID 1163); further: test concentration not given here
# test_context: 3T3-L1 adipocytes viability, higher = more signal
In plain terms, low z-score, meaning strictly below 0.9, gives t, and everything else gives f.

Example results:
# molecule_smiles, group
measured = [
    ("C[C@@H]1CC[C@H]2C(=O)N3CCC[C@H]3C(=O)N2[C@H]1c1ccc(Br)cc1", "t"),
    ("C=C(C(=O)CC[C@H](OC(=O)c1ccccc1-c1ccccc1C(=O)O)c1ccc(CO)o1)C(C)C", "t"),
    ("COC(=O)C[C@H]1O[C@]2(C(=O)N(Cc3ccccc3)c3ccc(I)cc32)[C@@H](C)[C@@H]1[Si](C)(C)c1ccc(OC)cc1", "f"),
    ("COc1ccc([Si](C)(C)[C@@H]2[C@@H](CCO)O[C@]3(C(=O)N(Cc4ccccc4)c4ccccc43)[C@H]2C)cc1", "t"),
]

Is z-score of COC(=O)[C@H]1[C@@H]2COc3ccccc3[C@H]2N[C@H]1C(=O)OC strictly below 0.9?
t

Is z-score of O=C(CS)NCCCCCCNC(=O)[C@@H]1C[C@@H]2C(=O)N[C@@H](Cc3ccccc3)C(=O)N2[C@@H]1c1ccc(O)cc1 strictly below 0.9?
t

Is z-score of NC(=O)NCC#Cc1ccc2c(c1)[C@]1(C(=O)N2)[C@H](C(=O)N2CCCCCCC2)[C@H]2C(=O)O[C@H](c3ccccc3)[C@H](c3ccccc3)N2[C@@H]1c1ccccc1OCCO strictly below 0.9?
f
